For each entry below, report its AC50 value.
# assayed-system: Cytochrome P450 3A4 (Homo sapiens, UniProt P08684);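 also: confirmatory qHTS run detecting inhibitors and substrates of CYP3A4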
# Sequence (P08684 whole entry): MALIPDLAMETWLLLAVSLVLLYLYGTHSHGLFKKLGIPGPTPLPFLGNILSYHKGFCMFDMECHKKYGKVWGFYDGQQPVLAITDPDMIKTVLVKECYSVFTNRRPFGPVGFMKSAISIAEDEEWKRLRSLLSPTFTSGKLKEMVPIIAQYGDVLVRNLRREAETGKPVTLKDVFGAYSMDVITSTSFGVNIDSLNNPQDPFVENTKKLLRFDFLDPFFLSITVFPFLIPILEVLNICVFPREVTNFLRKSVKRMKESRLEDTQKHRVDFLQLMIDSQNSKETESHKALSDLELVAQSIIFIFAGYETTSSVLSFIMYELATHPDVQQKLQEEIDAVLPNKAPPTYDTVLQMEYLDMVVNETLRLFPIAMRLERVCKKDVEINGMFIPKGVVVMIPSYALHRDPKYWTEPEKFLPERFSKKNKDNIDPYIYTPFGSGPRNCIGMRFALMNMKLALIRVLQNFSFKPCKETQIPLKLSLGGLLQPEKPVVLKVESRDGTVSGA
# experimental-conditions: Potency

*Q* # lookup: AC50 of C=CCN1CC[C@]23c4c5ccc(O)c4O[C@H]2/C(=N/NC(=O)c2ccccc2)CC[C@@]3(O)[C@H]1C5 [NALOXONE BENZOYLHYDRAZONE]
*A* 15.8 µM (inconclusive)

*Q* AC50 lookup needed for COc1ccc(-c2coc3cc(OC)cc(OC)c3c2=O)cc1 [BIOCHANIN A, DIMETHYL ETHER] , thanks.
*A* 20 µM (inconclusive)

*Q* May I ask what AC50 has been recorded for Cc1cc(O)c(C(C)(C)C)cc1Sc1cc(C(C)(C)C)c(O)cc1C ?
*A* 3.98 µM (inconclusive)

*Q* Which AC50 reading was recorded for the compound CCCCC#CC1C=CC(Oc2cc(OC)c(OC)c(OC)c2)C(CO)O1 (centres undefined) ?
*A* 5.01 µM (inconclusive)

###

Would you kindly list Ki for each of these molecules?
# assayed-system: fMet-Leu-Phe receptor (Homo sapiens)
# Sequence (P21462 whole entry): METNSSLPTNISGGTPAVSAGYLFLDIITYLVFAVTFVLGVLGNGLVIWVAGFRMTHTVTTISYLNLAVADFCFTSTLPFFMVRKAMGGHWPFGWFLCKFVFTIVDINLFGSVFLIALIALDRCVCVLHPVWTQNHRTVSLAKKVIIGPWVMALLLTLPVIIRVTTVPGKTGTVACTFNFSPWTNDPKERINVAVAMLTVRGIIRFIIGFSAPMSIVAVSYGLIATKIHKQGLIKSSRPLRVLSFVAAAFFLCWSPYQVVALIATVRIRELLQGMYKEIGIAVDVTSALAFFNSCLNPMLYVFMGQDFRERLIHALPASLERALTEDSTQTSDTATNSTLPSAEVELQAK
# run-description: formyl peptide receptor binders – dose response (AID 519)
# Assay type: functional
Calls of active or inactive are those of the source.

*Q* // Ki lookup, key: COc1ccccc1Oc1c(C)oc2c(CN(C)C)c(O)ccc2c1=O
*A* > 66.7 µM (inactive)

*Q* Any idea what Ki was measured for CCOC(=O)N1CCC(NC(=O)c2cc(C(=O)Nc3ccc(OC)c(OC)c3)ccc2CO)CC1 ?
*A* > 66.7 µM (inactive)

*Q* Which Ki value is on record for COc1cc(C2C(C(=O)c3ccco3)=C(O)C(=O)N2c2cc(C)on2)cc(Br)c1O (stereo not given) ?
*A* 47.7 µM (inactive)

*Q* Given COc1ccc(OC)c(C2C(C(=O)c3ccco3)=C(O)C(=O)N2CCCN2CCOCC2)c1 (stereo not given) , state its recorded Ki.
*A* 26.4 µM (inactive)

*Q* Fill in the blank: the reported Ki of Cc1nc2c(C)cccn2c1C(=O)C1=C(O)C(=O)N(CCN2CCOCC2)C1c1cccs1 (stereo not given) is ____.
*A* > 66.7 µM (inactive)

###

# assayed-system: Induced myeloid leukemia cell differentiation protein Mcl-1 (Homo sapiens, UniProt Q07820)
# Sequence (Q07820 whole entry): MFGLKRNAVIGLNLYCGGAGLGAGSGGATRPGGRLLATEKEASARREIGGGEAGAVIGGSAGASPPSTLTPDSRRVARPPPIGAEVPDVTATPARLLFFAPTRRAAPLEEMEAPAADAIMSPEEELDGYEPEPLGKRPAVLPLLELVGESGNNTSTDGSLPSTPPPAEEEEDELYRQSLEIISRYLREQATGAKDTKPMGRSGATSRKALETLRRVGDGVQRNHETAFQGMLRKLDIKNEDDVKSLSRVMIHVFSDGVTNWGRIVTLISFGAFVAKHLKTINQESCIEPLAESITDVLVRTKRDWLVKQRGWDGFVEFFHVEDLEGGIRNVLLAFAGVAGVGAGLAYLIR
# Format: functional
Activity calls are given as the source filed them.
quantity-measured: IC50

*Q* May I ask what IC50 has been recorded for COc1cc(C2C(C#N)=C(N)OC3=C2C(=O)CCC3)c([N+](=O)[O-])cc1OC (stereo not drawn) ?
*A* 3.9 µM (active)

*Q* Could you tell me which IC50 is on file for O=C1C=CC(=Nc2nc(O)c(-c3c(O)[nH]c4ccccc34)s2)C=C1 ?
*A* 1.67 µM (active)

*Q* Report IC50 for Cc1cc(-c2nc3c4c5c(sc4nc(O)n3n2)CCC5)c(C)o1 please.
*A* 3.05 µM (active)

###

# assayed-system: Ubiquitin-conjugating enzyme E2 N (Homo sapiens);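 also: Dose-response confirmation in a TR-FRET assay detecting UBC13-driven polyubiquitin chain formation, inhibition measured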
# Sequence (P61088 whole entry): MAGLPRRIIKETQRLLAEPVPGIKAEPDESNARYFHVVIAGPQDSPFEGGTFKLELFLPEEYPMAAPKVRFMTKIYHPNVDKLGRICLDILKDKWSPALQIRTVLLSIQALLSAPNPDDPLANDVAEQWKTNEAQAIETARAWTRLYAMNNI
# Type: functional
The source made the active and inactive calls.
Form entry, call: pick from 1 (yes) = active, 0 (no) = inactive

*Q* // param item: CCC[C@@H](CN1CCC[C@H]1CN1C(N)=NC[C@H]1C(C)C)N1C[C@@H]([C@H](C)CC)N(CCCC2CCCC2)C1=N ; yields the recorded call
*A* 0 (no)

*Q* Called result for CCC(=O)NC(=S)NNC(=O)c1ccc(NC(=O)c2ccccc2)cc1
*A* 1 (yes)

*Q* Outcome? CCOc1cc2c(C#N)c(N3CCNCC3)nc(N)c2c(N)n1
*A* 0 (no)

*Q* Write down the call the test reported for this molecule. Item: CCOc1ccc(N(C(=O)c2snc(C(N)=O)c2N)C(CC)C(=O)NC2CCCC2)cc1 (centres undefined)
*A* 1 (yes)

*Q* Given Cc1nc(Nc2cnc(/C=C/c3cc(C(=O)Nc4cccc(C(F)(F)F)c4)ccc3C)cn2)cc(N2CCNCC2)n1 , state the outcome it received in this test.
*A* 0 (no)

*Q* Can you look up the reported call for Cc1cccn2c(=O)c(C=O)c(N3CCCCCC3)nc12 for me?
*A* 0 (no)

*Q* Entry COC(=O)C1=C(C)N(CC2CC2)C(NCc2cccc(C(F)(F)F)c2)=N[C@H]1c1ccccc1 : call = ?
*A* 0 (no)

*Q* Tell me the recorded outcome of this test for c1cc2c(cc1C1CCCCC1)c1c3n2CCCNC3CCC1 (centres undefined) .
*A* 0 (no)

*Q* Kindly provide the recorded test outcome for the following molecule: CC[C@@H](C)[C@@H]1CN([C@@H](CN2CCC[C@H]2CN2C(N)=NC[C@H]2C(C)C)C(C)C)C(=N)N1CCCC1CCCC1
*A* 0 (no)
